Tested on: NOMO1
test: cell viability relative to DMSO control; higher = less cytotoxic
measurement setup: HPLM + 10% dialyzed FBS; 48 h; 0.000781 µM

>  <molecule>
NC(=O)c1ncn([C@@H]2O[C@H](CO)[C@@H](O)[C@H]2O)n1

>  <target system>
NOMO1

>  <cell viability>
116%

$$$$
>  <molecule>
CC(C)[C@@H](C[S+](=O)([O-])C(C)C)N1C(=O)[C@@](C)(CC(=O)O)C[C@H](c2cccc(Cl)c2)[C@H]1c1ccc(Cl)cc1

>  <target system>
NOMO1

>  <cell viability>
122%

$$$$
>  <molecule>
Clc1cc(Cl)cc(CNc2ncncc2-c2ccc3c(c2)OCO3)c1

>  <target system>
NOMO1

>  <cell viability>
81.1%

$$$$
>  <molecule>
[NH2][Pt]([NH2])([Cl])[Cl]

>  <target system>
NOMO1

>  <cell viability>
94.8%

$$$$
>  <molecule>
CC1(C)OC2CC3C4CC(F)C/5=C/C(=O)/C=C\C5(C)C4C(O)CC3(C)[C@@]2(O1)C(=O)CO (some centres undefined)

>  <target system>
NOMO1

>  <cell viability>
105%

$$$$
>  <molecule>
CC1(C)C(=O)N(CCN2CCC(C(=O)c3ccc(F)cc3)CC2)c2ccccc21

>  <target system>
NOMO1

>  <cell viability>
117%

$$$$
>  <molecule>
CC(=O)Nc1ccc([C@H](C)C(=O)Nc2ncc(C(C)C)s2)cc1

>  <target system>
NOMO1

>  <cell viability>
109%

$$$$
>  <molecule>
O=C(/C=C/c1cccc([S+](=O)([O-])Nc2ccccc2)c1)NO

>  <target system>
NOMO1

>  <cell viability>
143%

$$$$
>  <molecule>
O=C(/C=C/c1c(C(=O)[O-])[nH]c2cc(Cl)cc(Cl)c12)Nc1ccccc1

>  <target system>
NOMO1

>  <cell viability>
112%

$$$$

====

Tested on: NOMO1
test: cell viability relative to DMSO control; higher = less cytotoxic
measurement setup: RPMI 5 mM glucose + 10% FBS; 48 h; 1.71 µM

>  <molecule>
C[C@@H]1COCCN1C\2=C\C(=O)N\3CC[C@H](N(CC4=CN=CC(=C4)Cl)C3=N2)C(F)(F)F

>  <cell viability (%)>
94.2

$$$$
>  <molecule>
O=C(/C=C/c1c(C(=O)[O-])[nH]c2cc(Cl)cc(Cl)c12)Nc1ccccc1

>  <cell viability (%)>
107

$$$$
>  <molecule>
CN(C)C(=O)c1ccc([S+](=O)([O-])c2ccc(NC(=O)[C@@](C)(O)C(F)(F)F)c(Cl)c2)cc1

>  <cell viability (%)>
99.4

$$$$
>  <molecule>
OC[C@H]1O[C@H]([C@@H](F)[C@@H]1O)N2\C=C/C(=O)NC2=O

>  <cell viability (%)>
100

$$$$
>  <molecule>
C[C@@H](O)[C@@H]1[C@H]2[C@@H](C)\C(=C(/N2C1=O)C(=O)OCOC(=O)C(C)(C)C)SC3CN(C3)/C4=N/CCS4

>  <cell viability (%)>
110

$$$$
>  <molecule>
CC(=O)NC(CS)C(=O)O (centres undefined)

>  <cell viability (%)>
79.5

$$$$
>  <molecule>
Clc1cc(Cl)cc(CNc2ncncc2-c2ccc3c(c2)OCO3)c1

>  <cell viability (%)>
97.9

$$$$
>  <molecule>
CC(=O)C\1=C(/C)C2=CN=C(NC3=CC=C(C=N3)N4CCNCC4)N=C2N(C5CCCC5)C1=O

>  <cell viability (%)>
96.7

$$$$
>  <molecule>
CCc1c(C(=O)C(N)=O)c2c(OCC(=O)O)cccc2n1Cc1ccccc1

>  <cell viability (%)>
103

$$$$

====

Test system: P12-Ichikawa
test: cell viability relative to DMSO control; higher = less cytotoxic
measurement setup: RPMI 5 mM glucose + 10% FBS; 48 h; 1.71 µM
measured metric: cell viability (%)

>  <compound smiles>
CC[C@H]1/C=C\C=C/C[C@@H](C)[C@H](O)[C@@](C)(O)C(=O)[C@@H](C)[C@H](O)[C@@H](C)C(=O)[C@@H](C)[C@H](O)[C@@H](C)/C=C/C(=O)O[C@@H]2[C@H](C)[C@H](CC1)O[C@]1(CC[C@H](C)[C@H](C[C@@H](C)O)O1)[C@H]2C

>  <unit label>
%

>  <recorded number>
64.4

$$$$
>  <compound smiles>
O=C(NC[C@H](O)CN1CCc2ccccc2C1)c1cc(NC2COC2)ncn1

>  <unit label>
%

>  <recorded number>
74

$$$$
>  <compound smiles>
CC(C)(C)c1cc(C=C(C#N)C#N)cc(Br)c1O

>  <unit label>
%

>  <recorded number>
113

$$$$
>  <compound smiles>
CC(C)(C)C(=O)OCOP(=O)(COCCn1cnc2c(N)ncnc21)OCOC(=O)C(C)(C)C

>  <unit label>
%

>  <recorded number>
29.9

$$$$

====

// cell viability lookup, one value per entry
Test system: SEM cells
test: cell viability relative to DMSO control; higher = less cytotoxic
measurement setup: RPMI 5 mM glucose + 10% FBS; 48 h; 0.0211 µM
measured metric: cell viability (%)

>  <compound smiles>
CC1(C)C(=O)N(CCN2CCC(C(=O)c3ccc(F)cc3)CC2)c2ccccc21

>  <measured metric>
cell viability

>  <recorded number>
115

$$$$
>  <compound smiles>
O=C1\C=C/C[C@@H]2[C@H]3CCCN4CCC[C@@H](CN12)[C@@H]34

>  <measured metric>
cell viability

>  <recorded number>
108

$$$$
>  <compound smiles>
O=C(NC[C@H]1CN(c2ccc(N3CCOCC3=O)cc2)C(=O)O1)c1ccc(Cl)s1

>  <measured metric>
cell viability

>  <recorded number>
114

$$$$
>  <compound smiles>
Cn1cc(-c2ccc3nnc(C(F)(F)c4ccc5ncccc5c4)n3n2)cn1

>  <measured metric>
cell viability

>  <recorded number>
112

$$$$
>  <compound smiles>
CCN(CC)C(=S)SSC(=S)N(CC)CC

>  <measured metric>
cell viability

>  <recorded number>
79.2

$$$$
>  <compound smiles>
CC[C@H]1/C=C\C=C/C[C@@H](C)[C@H](O)[C@@](C)(O)C(=O)[C@@H](C)[C@H](O)[C@@H](C)C(=O)[C@@H](C)[C@H](O)[C@@H](C)/C=C/C(=O)O[C@@H]2[C@H](C)[C@H](CC1)O[C@]1(CC[C@H](C)[C@H](C[C@@H](C)O)O1)[C@H]2C

>  <measured metric>
cell viability

>  <recorded number>
81.2

$$$$
>  <compound smiles>
CCOC(=O)[C@H](CCc1ccccc1)N[C@@H](C)C(=O)N1CCC[C@H]1C(=O)O

>  <measured metric>
cell viability

>  <recorded number>
109

$$$$
>  <compound smiles>
COC[C@@H](NC(C)=O)C(=O)NCc1ccccc1

>  <measured metric>
cell viability

>  <recorded number>
123

$$$$

====

Tested on: SEM cells
test: cell viability relative to DMSO control; higher = less cytotoxic
measurement setup: RPMI 5 mM glucose + 10% FBS; 48 h; 0.00702 µM
Below is a list of entries, each paired with its recorded cell viability value.
measured metric: cell viability (%)

>  <molecule>
C\C1=C\N([C@H]2C[C@H](N=[N+]=[N-])[C@@H](CO)O2)C(=O)NC1=O

>  <recorded number>
88.9

$$$$
>  <molecule>
O=C1Nc2cc(Br)ccc2/C1=C1/Nc2ccccc2/C1=N\O

>  <recorded number>
110

$$$$
>  <molecule>
C[N+]1(C)[C@@H]2C[C@@H](OC(=O)[C@H](CO)c3ccccc3)C[C@H]1[C@@H]1O[C@@H]12.[Br-]

>  <recorded number>
102

$$$$
>  <molecule>
Oc1ccc(/C=C/c2cc(O)cc(O)c2)cc1

>  <recorded number>
85.6

$$$$
>  <molecule>
C[C@@H]1CN[C@H]2[C@@H](C)[C@@]\3(CC[C@H]\4[C@@H]5C/C=C6/C[C@@H](O)CC[C@]6(C)[C@H]5CC4=C3C)O[C@@H]2C1

>  <recorded number>
132

$$$$
>  <molecule>
C=CC1=C(C(=O)O)N2C(=O)[C@@H](NC(=O)/C(=N\O)c3csc(N)n3)[C@H]2SC1

>  <recorded number>
10.3

$$$$
>  <molecule>
C\C1=C\C(=O)C2=C(C=CC=C2)C1=O

>  <recorded number>
113

$$$$
>  <molecule>
O=C(O)c1ccc(-n2nc(-c3ccccc3O)nc2-c2ccccc2O)cc1

>  <recorded number>
86.7

$$$$
>  <molecule>
CCOc1cc(N)c(Cl)cc1C(=O)NCC1CN(Cc2ccc(F)cc2)CCO1 (centres undefined)

>  <recorded number>
107

$$$$

====

Tested on: P12-Ichikawa
test: cell viability relative to DMSO control; higher = less cytotoxic
measurement setup: RPMI 5 mM glucose + 10% dialyzed FBS; 48 h; 0.19 µM
measured metric: cell viability (%)

>  <compound>
N[S+](=O)([O-])c1cc(Cl)c(Cl)c([S+](N)(=O)[O-])c1

>  <target system>
P12-Ichikawa

>  <recorded number>
101

$$$$
>  <compound>
O=C1C[C@@H](c2ccc(O)cc2)Oc2cc(O)cc(O)c21

>  <target system>
P12-Ichikawa

>  <recorded number>
130

$$$$
>  <compound>
COc1cc(Nc2ncc(F)c(Nc3ccc4c(n3)NC(=O)C(C)(C)O4)n2)cc(OC)c1OC

>  <target system>
P12-Ichikawa

>  <recorded number>
121

$$$$
>  <compound>
CCOc1ccc(Nc2nc(-c3c(C)nc4ccccn34)cs2)cc1

>  <target system>
P12-Ichikawa

>  <recorded number>
28.9

$$$$
>  <compound>
Oc1ccc(/C=C/c2cc(O)cc(O)c2)cc1

>  <target system>
P12-Ichikawa

>  <recorded number>
116

$$$$
>  <compound>
CC(=O)CC(C1=CC=CC=C1)C/2=C(O)/C3=CC=CC=C3OC2=O (stereo not drawn)

>  <target system>
P12-Ichikawa

>  <recorded number>
127

$$$$
>  <compound>
O=C(Nc1cccc(Nc2ncc(Br)c(NCCc3cnc[nH]3)n2)c1)N1CCCC1

>  <target system>
P12-Ichikawa

>  <recorded number>
92.6

$$$$
>  <compound>
COC[C@@H](NC(C)=O)C(=O)NCc1ccccc1

>  <target system>
P12-Ichikawa

>  <recorded number>
109

$$$$
>  <compound>
C[C@@]12O[C@@H](C[C@]1(O)CO)n1c3ccccc3c3c4c(c5c6ccccc6n2c5c31)CNC4=O

>  <target system>
P12-Ichikawa

>  <recorded number>
104

$$$$
>  <compound>
CC1(C)OC2CC3C4CC(F)C/5=C/C(=O)/C=C\C5(C)C4C(O)CC3(C)[C@@]2(O1)C(=O)CO (stereo partly drawn)

>  <target system>
P12-Ichikawa

>  <recorded number>
76.6

$$$$
>  <compound>
C1CCC(C(CC2CCCCN2)C2CCCCC2)CC1 (stereo not drawn)

>  <target system>
P12-Ichikawa

>  <recorded number>
124

$$$$
>  <compound>
CCC1(c2ccc(N)cc2)CCC(=O)NC1=O (stereo not drawn)

>  <target system>
P12-Ichikawa

>  <recorded number>
108

$$$$
>  <compound>
OC(=O)\C1=C\N(C2=CC=C(F)C=C2)C3=C(C=C(F)C(=C3)N4CCNCC4)C1=O

>  <target system>
P12-Ichikawa

>  <recorded number>
114

$$$$
>  <compound>
CC(=O)N1CCN(c2ccc(OC[C@H]3CO[C@](Cn4ccnc4)(c4ccc(Cl)cc4Cl)O3)cc2)CC1

>  <target system>
P12-Ichikawa

>  <recorded number>
106

$$$$
>  <compound>
CN1CCC(CC1)COC2=CN=C(N=C2)C3=CC(=CC=C3)CN4/N=C(\C=C/C4=O)C5=CC(=CC=C5)C#N

>  <target system>
P12-Ichikawa

>  <recorded number>
123

$$$$
>  <compound>
NC(=O)c1ncn([C@@H]2O[C@H](CO)[C@@H](O)[C@H]2O)n1

>  <target system>
P12-Ichikawa

>  <recorded number>
100

$$$$
>  <compound>
CC(C)C[C@H](NC(=O)[C@@H](NC(=O)c1cccc(-c2ccccc2)n1)[C@@H](C)O)B(O)O

>  <target system>
P12-Ichikawa

>  <recorded number>
7.76

$$$$
>  <compound>
CCOC(=O)[C@H](CCc1ccccc1)N[C@@H](C)C(=O)N1CCC[C@H]1C(=O)O

>  <target system>
P12-Ichikawa

>  <recorded number>
116

$$$$
